FYI, the data here is from the nanobody polyreactivity screen of Harvey et al. (2022).

Assay: yeast display, Sf9 membrane polyspecificity reagent, FACS + sequencing; frameworks hold sequencing errors
property.name: polyreactivity (PSR sort gate)

Challenge: For the sequence QVQLVESGGGLVQAGGSLRLTCAASGLTFSFYAMGWYRQAPGKEWELVAALSKGGGSTSYADSVKGRFTISRDNAKNTFYLQRNSLKPGDTAVYSCAAKDYKAPNKRLYDYWGQGTQVTVSS , what polyreactivity (PSR sort gate) is on record?
Response given: high polyreactivity

Challenge: Continue with QVQLVESGGGLVQAGGSLRLSCAASGITFYPYAMGWYRQAPGKERELVAAISRRGGSTNYADSVKGRFTISRDNAKNTVYLQMNSLKPEDTAVYYCNRDYPIGYRQDPVYYWGQGSQVTVSS
Response given: high polyreactivity

---

Test: yeast display, Sf9 membrane polyspecificity reagent, FACS + sequencing; frameworks hold sequencing errors
property.name: polyreactivity (PSR sort gate)

Challenge: For the sequence QVQLVESGGGLVQAGGILRLSCAASGSTFTYNVMGWYRQAPGKERYLVAAISWSGGSTFYADSVKGRFTISRDNAKNTVYLQMNRLKPEDTAVYYCNKDHLVYPSEFYYWGQGTQVTVSS , what polyreactivity (PSR sort gate) is on record?
Response given: low polyreactivity

Challenge: Continue with QVQLVESGGGLVQAGGSLRLRCAASGFTFHRYAMGWYRPAPGKERELVAGITRRSGSTFYADSVKGRFTISRDNAKNTVYLQMNSLKPEDTAVYYCAATVPGLHWIYDYWGQGTQVTVSS
Response given: high polyreactivity

Challenge: Continue with QVQVVESGGGLVQAGGSLRLSCAASGSISDSYAMGWYRQAPGKERELVAAITSGDSTYYADSVKGRFTISRDNAKNTVYLQMNSLKPEDTAVYYCAKRVSRVRGYGFTDWSEYDYWGQVTQVTVSS
Response given: low polyreactivity

Challenge: Continue with QVQLVESGGGLVQAGGSLRLSCAASGFTFPVNTMGWYRQAPGKERELVAAISTSGAGTYYADSVKGRFTISRDNAKNTVYLQMNSLKPEDTAVYYCNADSQPGPYPGIRYDYWGQGTQVTVSS
Response given: high polyreactivity

Others:
Challenge: For the sequence QVQLVESGGGLVQAGGSLRLSCAASGRTFWPYVMGWYRQAPGKERELVASITRSGGTTNYADSVKGRFTISRDNAKNTVYLQMNSLKPEDTAVYYCNARTVYSWSREYNYWGQGTQVTVSS , what polyreactivity (PSR sort gate) is on record?
Response given: high polyreactivity

---

Test: yeast display, Sf9 membrane polyspecificity reagent, FACS + sequencing; frameworks hold sequencing errors
property.name: polyreactivity (PSR sort gate)

Observe how each entry below is paired with its result.
Challenge: For the sequence QVQLVESGGGLVQAVGSLRLSCAASGGIITSSAMGWYRLAPGKEWELVAAITGIGGRTYYADSVKGRFTISRDNAKNTVYLQMNSLKPEDTAVYYCKAAYTYVTAWYYYCGQGTQVTVSS , what polyreactivity (PSR sort gate) is on record?
Response given: high polyreactivity

Challenge: Continue with QVQLVESGGGLVQAGGSLRLSCAASGSTFYVNDMGRYRQAPGNERELVAAITWGVGDTYYADSVKGRFTISRDNAKNTVYLQMNSQKPEDTAVYYCAADTSYYYAYTQMEYWGQGTQVTVSS
Response given: low polyreactivity

Challenge: Continue with QVQLVESGGGLVQAGGSLRLTCAASGRTLRYNAMGWYRPAPVKERELVAAITSTGSTNYADSVKGRFTISRDNAKLTVYLHMNSLTAEDTAVYYCAKTSRYYWYGYDYWGQGTQVTVSS
Response given: high polyreactivity

Challenge: Continue with QVQLVESGGGLVQAGGSLRISCAASGLIFAIYAMGWYRQAPGKERELVAAIRWSGASPYADSVKGRFTISRDNAKKTVYLQMNSLKPEDSAVYYCAADDLLDYDYWGQGTQVTVSA
Response given: low polyreactivity

Challenge: Continue with QVQLVESGGGLVQAGGSLRLSCAACGSTFYVNTMGWYRQAPGKERELVAAITDSGVGTYADSVKGRFTISRDNAKNTVYLQMNSLKPEDTAVYYCNADGRYYDDETYDYWGQGTQVTVSS
Response given: low polyreactivity

Challenge: Continue with QVQLVESGGGLVQAGGSLRISCAASGFIFTSKAMGWHRQAPGKERELVAAITKSGGSTYYADSVKGRFTISRDNAKNTVYLQMNSLKPEDTAVYYCAAYPTSRYKYEYWGQGTQVTVSS
Response given: high polyreactivity

Challenge: Continue with QVQLVESGGGLVQAGGSLRLSCAASGRILGGNAMGWYRQAPGKERELVAAITSGGTTNYADSVKGRFTISRDNAKNTVYLQMNSLKPEDTAVYYCNADWTDGDWADMDYWGQGTQVTVSS
Response given: low polyreactivity

Challenge: Continue with QVQLVESGGGLVQAGGSLRLSCAASGRIFIYNAMGWYRQAPGKERELVAAISSGGDTYYADSVKGRFTISRDNAKNTVYLQMNSLKPEDSAVYYCAATFVVKGTRFGYWGQGTQVTVSS
Response given: high polyreactivity

Others:
Challenge: For the sequence QVQLVESGGGLVQAGGSLRLSCAASGSTFYDYDMGWYSQAPGKESELVAAITSGGSTKYADSVKGRFTISRDNAKNTVYLQMNSLKPEDTAVYYCNADSQRPAYWDGYWGQGTKVTVSS , what polyreactivity (PSR sort gate) is on record?
Response given: low polyreactivity

Challenge: Continue with QVQLVESGGGLVQAGGSLRLSCAASGRIYRNAMGWYRPAPGKERELVAAISSRGASTYYADSVKGRFTITRDNAKNTVYLQMNSLKPEDTAVYYCAARTSSSSGYYAREYWGQGTQVTVSS
Response given: high polyreactivity

Challenge: Continue with QVQLVESGGGLVQAGGSLRLSCAASGIIQGVYALGWYRQAPGKERELVAAITSSGGSTYYADSVKGRFTISRDNAKNTVYLQMNSLKPEDTAVYYCAADFDTSVRLYGPTRYDYWGQGTQVTVSS
Response given: low polyreactivity
